Origin of measurements: ChEMBL document CHEMBL1121896

- system_under_test: Histamine H2 receptor (Cavia porcellus)
- assay_procedure: Ratio of potency (3*10e-5M) to that of agonist for histamine H2 receptor, in an assay for guinea pig atria chronotropic response
- Type: functional
Classify: T when Potency ratio is strictly less than 3; F when Potency ratio is not.

# smiles_string, discrete_label
data = [
    ("CS/C(=N\\CCSCc1cc2ccccc2[nH]1)NC#N", "F"),
    ("C/N=C(\\NC#N)NCCSCc1cc2ccccc2[nH]1", "T"),
    ("CS/C(=N\\CCSCc1c[nH]c2ccccc12)NC#N", "T"),
    ("CN/C(=N\\CCSCc1nc[nH]c1C)NC#N", "F"),
    ("C/N=C(\\S)NCCSCc1cc2ccccc2[nH]1", "F"),
    ("S=C(NCCSCc1cc2ccccc2[nH]1)Nc1ccccc1", "T"),
    ("C/N=C(\\S)NCCSCc1c[nH]c2ccccc12", "T"),
    ("C/N=C(\\NC#N)NCCSCc1c[nH]c2ccccc12", "T"),
]
